Test system: E. coli clinical isolates
measurement-protocol: MIC on panel of E. coli clinical isolates
Type: cell-based
test-conditions: strain SEC072
Kindly apply the following: Fulfilled if MIC is less than 4 µg/mL, Not fulfilled in every other case.

*Q* I'd appreciate it if you could check whether O=C(Nc1nc(-c2ccc(F)cc2)cs1)c1ccc([N+](=O)[O-])s1 has MIC smaller than 4 µg/mL.
*A* Not fulfilled

*Q* Now the same for CNC(C)C1CCC(N)C(OC2C(N)CC(N)C(OC3OCC(C)(O)C(NC)C3O)C2O)O1 (stereo not drawn) [gentamicin, reference compound]
*A* Not fulfilled

*Q* Now the same for O=C1CN(/N=C/c2ccc([N+](=O)[O-])o2)C(=O)N1 [nitrofurantoin, reference compound]
*A* Not fulfilled

*Q* Now the same for O=C(Nc1nc(-c2ccc(F)cc2F)cs1)c1ccc([N+](=O)[O-])s1
*A* Fulfilled

*Q* Now the same for C[C@@H](O)[C@H]1C(=O)N2C(C(=O)O)=C(S[C@@H]3CN[C@H](C(=O)N(C)C)C3)[C@H](C)[C@H]12 [meropenem, reference compound]
*A* Fulfilled

====

Tested on: E. coli clinical isolates
measurement-protocol: MIC on panel of E. coli clinical isolates
Type: cell-based
test-conditions: strain SEC043
property-label: MIC (µg/mL)
Unit µg/mL implied. Number only.

*Q* Requested read-out: MIC. Entry: O=C(Nc1nc(-c2ccc(F)cc2)cs1)c1ccc([N+](=O)[O-])s1
*A* 8

*Q* Now the same for O=C1CN(/N=C/c2ccc([N+](=O)[O-])o2)C(=O)N1 [nitrofurantoin, reference compound]
*A* 20

*Q* Now the same for C[C@@H](O)[C@H]1C(=O)N2C(C(=O)O)=C(S[C@@H]3CN[C@H](C(=O)N(C)C)C3)[C@H](C)[C@H]12 [meropenem, reference compound]
*A* 0.06

*Q* Now the same for COc1cc(-c2csc(NC(=O)c3ccc([N+](=O)[O-])s3)n2)ccc1Cl
*A* 8

*Q* Now the same for O=C(Nc1nc(-c2ccc(F)cc2F)cs1)c1ccc([N+](=O)[O-])s1
*A* 2

====

Test system: E. coli ∆nfsA + ∆nfsB
measurement-protocol: microbe, parasite or virus in culture
Format: cell-based
test-conditions: ΔnfsA and ΔnfsB double knockout strain
property-label: antibacterial activity in double knockout (in words)

COc1cc(-c2csc(NC(=O)c3ccc([N+](=O)[O-])s3)n2)ccc1Cl [compound 20]    completely inactive
O=C(Nc1nc(-c2ccc(F)cc2)cs1)c1ccc([N+](=O)[O-])s1 [compound 15]    completely inactive
O=C(Nc1nc(-c2ccc(F)cc2F)cs1)c1ccc([N+](=O)[O-])s1 [compound 12]    completely inactive

====

measurement-protocol: Oral pharmacokinetics
Assay type: in vivo, BALB/c mice
test-conditions: BALB/c, mouse, plasma; mice, single oral dose 10 mg/kg
property-label: AUC(0-inf) (ng·h/mL)
Unit ng·h/mL implied. Number only.

*Q* Requested read-out: AUC(0-inf). Entry: O=C(Nc1nc(-c2ccc(F)cc2)cs1)c1ccc([N+](=O)[O-])s1 [compound 15]
*A* 760

*Q* Now the same for O=C(Nc1nc(-c2ccc(F)cc2F)cs1)c1ccc([N+](=O)[O-])s1 [compound 12]
*A* 760

====

I'd appreciate it if you could supply AUC values for the items below.
measurement-protocol: Oral pharmacokinetics
Format: in vivo, BALB/c mice
test-conditions: BALB/c, mouse, plasma, po, 10 mg/kg
Unit ng·h/mL implied. Number only.

*Q* Requested read-out: AUC. Entry: O=C(Nc1nc(-c2ccc(F)cc2F)cs1)c1ccc([N+](=O)[O-])s1 [compound 12]
*A* 760

*Q* Now the same for O=C(Nc1nc(-c2ccc(F)cc2)cs1)c1ccc([N+](=O)[O-])s1 [compound 15]
*A* 750
